target system: T1, human FcRn/b2M (human, UniProt P61769 21-119, biotinylated)
T1 construct: bought recombinant biotinylated protein (ACRO FCM-H82W4 or Immunitrack ITF01); also called hFcRn; hFcRn/hb2M
assay method text: SPR pH 6.0;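 also: surface plasmon resonance kinetics at 25 °C, diluted periplasmic extracts injected over immobilized ligand surfaces, 120 s association then 600–3600 s dissociation, running buffer containing 150 mM NaCl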
property measured: koff (s⁻¹)

binder	obs value
T0263018B11 Y98F (VHH, name in Kabat numbering, FLAG3-His6 tagged) VHH: EVQLVESGGGVVQPGGSLRLSCAASGFTFSSYAMYWVRQAPGKGLEWVSAISSGGGSTDYADSVKGRFTISRDNSKNTLYLQMNSLRPEDTALYYCAADTLFTSLTWYSYWGQGTLVTVSS	0.00053
T0263018B11 T96M (VHH, name in Kabat numbering, FLAG3-His6 tagged) VHH: EVQLVESGGGVVQPGGSLRLSCAASGFTFSSYAMYWVRQAPGKGLEWVSAISSGGGSTDYADSVKGRFTISRDNSKNTLYLQMNSLRPEDTALYYCAADMLYTSLTWYSYWGQGTLVTVSS	0.0016

a. T0263018B11 S56A (VHH, name in Kabat numbering, FLAG3-His6 tagged) VHH: EVQLVESGGGVVQPGGSLRLSCAASGFTFSSYAMYWVRQAPGKGLEWVSAISSGGGATDYADSVKGRFTISRDNSKNTLYLQMNSLRPEDTALYYCAADTLYTSLTWYSYWGQGTLVTVSS
b. T0263018B11 Y32S (VHH, name in Kabat numbering, FLAG3-His6 tagged) VHH: EVQLVESGGGVVQPGGSLRLSCAASGFTFSSSAMYWVRQAPGKGLEWVSAISSGGGSTDYADSVKGRFTISRDNSKNTLYLQMNSLRPEDTALYYCAADTLYTSLTWYSYWGQGTLVTVSS
Min koff? a | b To answer, give the label that identifies your chosen option. a

Cited source for all entries: patent US20240132624A1
